Give pIC50 for every item shown.
- targetOrSystem: HIS-TGF-βR1 T204D (Homo sapiens (Human), UniProt P36897, T204D)
- Sequence (P36897 34-503 T204D): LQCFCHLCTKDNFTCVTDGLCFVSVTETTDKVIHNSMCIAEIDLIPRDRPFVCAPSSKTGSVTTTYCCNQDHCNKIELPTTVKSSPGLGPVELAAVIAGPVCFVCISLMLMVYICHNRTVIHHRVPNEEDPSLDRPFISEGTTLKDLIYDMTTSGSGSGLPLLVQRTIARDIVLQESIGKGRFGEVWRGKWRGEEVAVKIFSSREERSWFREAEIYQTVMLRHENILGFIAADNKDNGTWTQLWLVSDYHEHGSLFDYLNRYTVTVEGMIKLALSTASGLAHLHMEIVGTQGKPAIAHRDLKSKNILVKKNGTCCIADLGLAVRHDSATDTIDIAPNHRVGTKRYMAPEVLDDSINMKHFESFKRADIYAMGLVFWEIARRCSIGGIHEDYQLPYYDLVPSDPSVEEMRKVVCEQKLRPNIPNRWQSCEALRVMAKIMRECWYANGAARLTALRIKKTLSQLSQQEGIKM
- experimentalProtocol: HTRF probe displacement assay with HIS-TGF-βR1 T204D
- protocolConditions: read-out: TGFbr1 IC50; HTRF probe displacement, 1 nM HIS-TGF-βR1 T204D, 1 hour at room temperature
Numbers only, as −log10 of the molar value.

Known pIC50 results, listed for orientation:
molecule	pIC50
Cc1nc(-c2ccc(F)cc2)c(-c2ccc3ncc(C(N)=O)n3c2)n1CC(F)F [Example 272′]	7.98
CC(C)OC(=O)NCc1cnc2ccc(-c3c(-c4ccc(F)cc4)ncn3CC(F)F)nn12 [Example 201′]	8.30
N#Cc1cnc2ccc(-c3c(-c4cccc(OC(F)(F)F)c4)ncn3CC(F)F)nn12 [259′]	9.00
N#Cc1cnc2ccc(-c3c(-c4ccc(F)c(Cl)c4)ncn3C[C@@H]3CCCO3)nn12 [42′]	8.74

Please supply pIC50 for each of the following items, keeping them in order.
1. Fc1ccc(-c2ncn(CC(F)F)c2-c2ccc3ncc(C(F)F)n3n2)cc1 [Example 215′]
2. CC1(Cn2cnc(-c3ccc(F)c(Cl)c3)c2-c2ccc3ncc(C#N)n3n2)COC1 [45′]

Result:
1. 9.10
2. 8.64

Dear reader, for each entry below, please note its pIC50.
1. CCn1cnc(-c2ccc(F)cc2)c1-c1ccc2ncc(C(N)=O)n2n1 [112′]
2. CC[C@@H](CO)n1cnc(-c2ccc(F)cc2)c1-c1ccc2ncc(C#N)n2n1 [Example 6′]
3. NC(=O)c1cnc2ccc(-c3c(-c4cc(Cl)ccc4F)ncn3CC(F)F)cn12 [234′]

Result:
9.15
8.30
8.96

* * *

- targetOrSystem: HIS-TGF-βR1 T204D (Homo sapiens (Human), UniProt P36897, T204D)
- experimentalProtocol: HTRF probe displacement assay with HIS-TGF-βR1 T204D
- protocolConditions: read-out: TGFbr1 IC50; HTRF probe displacement, 1 nM HIS-TGF-βR1 T204D, 1 hour at room temperature
pIC50: −log10 of the molar value.
Tag: True if measured pIC50 is not below 8, False if it is.

compound	discreteLabel
Cc1nc(-c2ccc(F)cc2)c(-c2ccc3nccn3c2)n1CC(F)F [Example 271′]	False

Query: Does the compound C[C@@H](O)Cn1cnc(-c2ccc(F)cc2)c1-c1ccc2ncc(C(N)=O)n2c1 [155′] have recorded pIC50 that is 8 or more?
Result: True

Query: Determine whether this compound has pIC50 no lower than 8: COC(=O)Nc1cnc2ccc(-c3c(-c4ccc(F)cc4)ncn3CC(F)F)nn12 [Example 211′]
Result: True

Query: Does the compound CC(O)c1cnc2ccc(-c3c(-c4ccc(F)cc4)ncn3CC(F)F)cn12 (stereo not shown) [Example 274′] have recorded pIC50 that is 8 or more?
Result: False

Query: Quick check: does N#Cc1cnc2ccc(-c3c(-c4ccc(F)cc4)ncn3C3CCCCC3O)nn12 (stereo not shown) [17′] have pIC50 greater than or equal to 8?
Result: True

* * *

- targetOrSystem: HIS-TGF-βR1 T204D (Homo sapiens (Human), UniProt P36897, T204D)
- experimentalProtocol: HTRF probe displacement assay with HIS-TGF-βR1 T204D
- protocolConditions: read-out: TGFbr1 IC50; HTRF probe displacement, 1 nM HIS-TGF-βR1 T204D, 1 hour at room temperature
I'd appreciate it if you could supply pIC50 values for the items below.
Numbers only, as −log10 of the molar value.

Consider the worked cases shown below.
compound	targetOrSystem	pIC50
CC(C1CC1)n1cnc(-c2ccc(F)cc2)c1-c1ccc2ncc(C(N)=O)n2c1 (centres unmarked)	HIS-TGF-βR1 T204D (Homo sapiens (Human), UniProt P36897, T204D)	9.22
CC(C)OCCn1cnc(-c2ccc(F)cc2)c1-c1ccc2ncc(C(N)=O)n2n1	HIS-TGF-βR1 T204D (Homo sapiens (Human), UniProt P36897, T204D)	8.60
Fc1ccc(-c2ncn(CC(F)F)c2-c2ccc3nccn3c2)cc1Cl	HIS-TGF-βR1 T204D (Homo sapiens (Human), UniProt P36897, T204D)	8.00
CC(O)c1cnc2ccc(-c3c(-c4ccc(F)cc4)ncn3CC(F)F)nn12 (centres unmarked)	HIS-TGF-βR1 T204D (Homo sapiens (Human), UniProt P36897, T204D)	8.96

Data point: N#Cc1cnc2ccc(-c3c(-c4ccc(F)cc4)ncn3C3CC3)cn12 ; pIC50 = 7.70

* * *

- targetOrSystem: HIS-TGF-βR1 T204D (Homo sapiens (Human), UniProt P36897, T204D)
- experimentalProtocol: HTRF probe displacement assay with HIS-TGF-βR1 T204D
- protocolConditions: read-out: TGFbr1 IC50; HTRF probe displacement, 1 nM HIS-TGF-βR1 T204D, 1 hour at room temperature
Kindly state IC50 for each of the entries shown.
One number for each entry, in µM.

Examples with answers:
compound	number
FCCCn1cnc(-c2ccc(F)c(Cl)c2)c1-c1ccc2nccn2c1 [183′]	0.0216
Fc1ccc(-c2ncn(CC(F)F)c2-c2ccc3ncc(CNC4CC(F)(F)C4)n3c2)cc1 [276′]	0.988
N#Cc1cccc(-c2ncn(CC(F)F)c2-c2ccc3ncc(C#N)n3n2)c1 [Example 236]	0.0021
N#Cc1cnc2ccc(-c3c(-c4ccc(F)c(Cl)c4)ncn3CCN3CCOCC3)cn12 [95′]	0.0768
N#Cc1cnc2ccc(-c3c(-c4ccccc4O)ncn3CC(F)F)nn12 [248′]	0.0007

Would you be so kind as to report IC50 for each listed record?
1. Cn1cnc(-c2ccc(F)c(Cl)c2)c1-c1ccc2ncc(C#N)n2c1 [98′]
2. CC(C1CC1)n1cnc(-c2ccc(F)cc2)c1-c1ccc2ncc(C#N)n2c1 (stereo not drawn) [88′]

Result:
1: 0.0173; 2: 0.0193

* * *

- targetOrSystem: HIS-TGF-βR1 T204D (Homo sapiens (Human), UniProt P36897, T204D)
- experimentalProtocol: HTRF probe displacement assay with HIS-TGF-βR1 T204D
- protocolConditions: read-out: TGFbr1 IC50; HTRF probe displacement, 1 nM HIS-TGF-βR1 T204D, 1 hour at room temperature
Entries get a class label from measured IC50. See ranges: bottom bin = under 2 nM, middle bin = from 2 nM up to 9 nM, top bin = 9 nM and over

As a guide, the following entries are already answered.
compound	targetOrSystem	discreteLabel
NC(=O)c1cnc2ccc(-c3c(-c4ccc(F)c(Cl)c4)ncn3CCCCl)nn12 [149′]	HIS-TGF-βR1 T204D (Homo sapiens (Human), UniProt P36897, T204D)	bottom bin
NC(=O)c1cnc2ccc(-c3c(-c4ccc(F)c(Cl)c4)ncn3C[C@@H]3CCCO3)nn12 [145′]	HIS-TGF-βR1 T204D (Homo sapiens (Human), UniProt P36897, T204D)	middle bin
NC(=O)c1cnc2ccc(-c3c(-c4ccc(F)c(Cl)c4)ncn3C(CO)CO)cn12 [122′]	HIS-TGF-βR1 T204D (Homo sapiens (Human), UniProt P36897, T204D)	bottom bin

Query: For the record CCn1cnc(-c2ccc(F)c(Cl)c2)c1-c1ccc2ncc(C(N)=O)n2n1 [117′] , report the class its IC50 corresponds to.
Result: bottom bin

Query: Class (by measured IC50) for CCCn1cnc(-c2ccc(F)cc2)c1-c1ccc2ncc(C(N)=O)n2c1 [177′]
Result: bottom bin

* * *

Answer each item with its documented pIC50.
- targetOrSystem: HIS-TGF-βR1 T204D (Homo sapiens (Human), UniProt P36897, T204D)
- experimentalProtocol: HTRF probe displacement assay with HIS-TGF-βR1 T204D
- protocolConditions: read-out: TGFbr1 IC50; HTRF probe displacement, 1 nM HIS-TGF-βR1 T204D, 1 hour at room temperature
Give bare numbers, as −log10 of the molar value.

The following compounds have reported results that may help.
compound	targetOrSystem	pIC50
N#Cc1cnc2ccc(-c3c(-c4ccc(F)c(Cl)c4)ncn3CCCCl)nn12 [44′]	HIS-TGF-βR1 T204D (Homo sapiens (Human), UniProt P36897, T204D)	8.92
N#Cc1cnc2ccc(-c3c(-c4ccc(F)c(Cl)c4)ncn3C3CCOCC3)nn12 [48′]	HIS-TGF-βR1 T204D (Homo sapiens (Human), UniProt P36897, T204D)	8.51
C[C@H](O)Cn1cnc(-c2ccc(F)cc2)c1-c1ccc2ncc(C#N)n2c1 [89′]	HIS-TGF-βR1 T204D (Homo sapiens (Human), UniProt P36897, T204D)	6.90

Lab note: each compound below needs its pIC50 filled in.
1. NC(=O)c1cnc2ccc(-c3c(-c4ccc(F)cc4)ncn3CCCF)cn12 [162′]
2. N#Cc1cnc2ccc(-c3c(-c4ccc(F)cc4)ncn3C3CN(C(=O)C4CC4)C3)nn12 [Example 192′]
3. N#Cc1cnc2ccc(-c3c(-c4ccc(F)c(Cl)c4)ncn3CCF)nn12 [34′]
4. CNC(=O)c1cnc2ccc(-c3c(-c4ccc(F)cc4)ncn3CC(F)F)nn12 [206′]
5. CC(CCO)n1cnc(-c2ccc(F)cc2)c1-c1ccc2ncc(C#N)n2c1 (stereo not shown) [80′]
6. N#Cc1cnc2ccc(-c3[nH]cnc3-c3ccc(F)cc3)nn12 [18′]
7. CC(CO)n1cnc(-c2ccc(F)cc2)c1-c1ccc2ncc(C(N)=O)n2c1 (stereo not shown) [152′]

Result:
1: 8.72; 2: 6.64; 3: 9.05; 4: 9.05; 5: 7.51; 6: 7.98; 7: 8.96

Look at each compound and report its pIC50.
1. CCn1cnc(-c2ccc(F)c(Cl)c2)c1-c1ccc2ncc(C(N)=O)n2c1 [119′]
2. NC(=O)c1cnc2ccc(-c3c(-c4ccc(F)cc4)ncn3C3CCC3)cn12 [172′]
3. Fc1ccc(-c2ncn(CC(F)F)c2-c2ccc3ncc(C(F)F)n3c2)cc1 [Example 277′]
4. Fc1cc(F)c(-c2ncn(CC(F)F)c2-c2ccc3nccn3c2)cc1Cl [223′]
5. Cc1nc(-c2ccc(F)cc2)c(-c2ccc3[nH]ncc3c2)n1CC(F)F [Example 273′]

Result:
9.40
9.30
7.68
8.66
7.53

# credit: patent US9884868B2
